These measurements were taken from patent US20190106487A1.

- STUDY TARGET: T1, rhIL-1RAcP/Fc Chimera (human, UniProt Q9NPH3 21-359)
- T1 construct: also called P013_03; P013-03
- T1 sequence (looked up): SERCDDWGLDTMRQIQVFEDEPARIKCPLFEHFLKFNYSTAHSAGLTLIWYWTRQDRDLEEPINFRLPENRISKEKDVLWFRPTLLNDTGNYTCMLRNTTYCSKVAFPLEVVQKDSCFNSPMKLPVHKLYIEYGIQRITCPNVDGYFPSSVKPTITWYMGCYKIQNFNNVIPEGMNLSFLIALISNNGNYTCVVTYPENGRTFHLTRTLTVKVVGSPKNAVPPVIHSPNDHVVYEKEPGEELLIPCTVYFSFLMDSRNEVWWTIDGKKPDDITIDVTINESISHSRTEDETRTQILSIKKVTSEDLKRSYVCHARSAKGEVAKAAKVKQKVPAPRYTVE
- METHOD DESCRIPTION: ELISA, primary supernatant, coated hu-IL-1RAcP-Fc
METRIC: hu-IL1RaP ELISA (OD)
The answer is to be given in OD; state only the numeric part.

Worked examples follow.
P013.S.01.B.H05 (antibody, V domains shown, rabbit monoclonal antibody; also called P013.A.00109.F08) VH: LEQSGGGAEGGLVKPGGSLELCCKASGFSLSNSYWICWVRQAPGKGLEWIGCIYVGSSGSTYYASWVNGRFTLSRDIDQSTGCLQLNSLTAADTAIYYCARDGATSTSGHLFELWGQGTLVTVSS VL: ALVMTQTPSPVSAAVGGTVTINCQASEDIYSNLAWFQQKPGQPPKLLIYRASTLASGVPSRFSGSGSGTEFTLTISGVQSDDAATYYCLGIYTYISADGSLYNAFGGGTEVVVK :: 3.3
P013.S.01.B.E05 (antibody, V domains shown, rabbit monoclonal antibody; also called P013.A.00086.F02) VH: QSLEESGGDLVKPGASLTLTCTASGISFSSSDFMCWVRQAPGKGLEWIACIYAGSSVSIYYATWAKGRFTISKASSTTVTLQMASLTVADTATYFCARSTGSVGRGFNLWGQGTLVTVSS VL: AQVLTQTPSPVSAAVGGTVTISCQASQSVYNSNHLSWYQQKPGQPPRLLIYSASTLASGVPSRFKGSGSGTQFTLTISGVQSDDAATYYCQGEFSCVSADCIAFGGGTEVVVK :: 3.6

GET /value?item= P013.S.02.B.H02 (antibody, V domains shown, rabbit monoclonal antibody; also called P013.A.00015.B10) VH: QSLEESGGRLVTPGTPLTLTCTVSGFSLSSCAMIWVRQAPGKGLEWIGFIGRGGSTWYASWVNGRFTISKTSTTVDLKITSPTTEDTATYFCARDGDFSDYYTFNLWGQGTLVTVSS VL: DVVMTQTPASVSEPVGGTVTIKCQASQNIGSNLAWYQQKPGQPPKLLIYGASTLASGVPSRFSGSGSGTEFTLTISGVQSADATTYYCQCSGYDTTGVFPFGGGSEVVVR &field=hu-IL1RaP ELISA (OD) returns 3
